test system: HCC-2998 colon; assay: NCI tumour cell line growth inhibition, 48 h

{"Molecule": "CC(=O)c1ccc(N=Nc2ccc3nonc3c2N)cc1", "Inequality symbol": ">", "TGI (µM)": 100}
{"Molecule": "N=C1C(c2nc(-c3ccc(Br)cc3)cs2)=C(O)CN1Cc1cccnc1", "Inequality symbol": "=", "TGI (µM)": 80.4}
{"Molecule": "C=CCn1c2c(c3ccccc3c1=O)C(=O)c1ccccc1-2", "Inequality symbol": ">", "TGI (µM)": 100}
{"Molecule": "COc1cc2c3c(n(C)c(=O)c2cc1OC)-c1cc2c(cc1/C3=C\\CCCCCN)OCO2", "Inequality symbol": "=", "TGI (µM)": 39.5}
{"Molecule": "Nc1nc(SCc2ccccn2)c2ncn(C3CCCC3)c2n1", "Inequality symbol": ">", "TGI (µM)": 100}
{"Molecule": "S=C1c2ccccc2NC(=NC2CCCC2)C2CSCN12 (stereo not given)", "Inequality symbol": ">", "TGI (µM)": 100}
{"Molecule": "COc1ccc2c(c1)[nH]c(=O)c1c3cc(C)c(C)cc3cn21", "Inequality symbol": "=", "TGI (µM)": 0.0802}
{"Molecule": "N#CCC(=O)Nc1cccc(C(F)(F)F)c1", "Inequality symbol": ">", "TGI (µM)": 100}
{"Molecule": "COc1ccc2nc3cc(Cl)ccc3c(NCCCCCC(=O)NC(COc3cnc4c(ccc5cccnc54)c3)COc3cnc4c(ccc5cccnc54)c3)c2c1", "Inequality symbol": "=", "TGI (µM)": 27.9}
{"Molecule": "COc1ccc2nc(N/N=C(\\C)c3ccccn3)cc(C)c2c1", "Inequality symbol": "=", "TGI (µM)": 2.06}
{"Molecule": "COc1ccc2c(c1)/C(=C\\c1c(C)nc3sc(C)cn13)C(=O)N2C", "Inequality symbol": "=", "TGI (µM)": 4.68}
{"Molecule": "CC(C)CCCC(C)[C@H]1CCC2[C@@H]3CCC4Cc5nc6c(nc5C[C@]4(C)C3CC[C@@]21C)CC1CC[C@@H]2C(C[C@@H](O)[C@@]3(C)C2C[C@@H]2OC4(CCC(C)CO4)C(C)[C@@H]23)[C@@]1(C)C6 (stereo not given in full)", "Inequality symbol": ">", "TGI (µM)": 100}
{"Molecule": "COC(=O)N[C@H]1CCc2c(Br)c(OC)c(OC)c(OC)c2-c2ccc(SC)c(=O)cc21", "Inequality symbol": "=", "TGI (µM)": 11.5}
{"Molecule": "CCOC(=O)[C@@]1(C)C=C2O[C@@H]3OC4(CCCCC4)O[C@@H]3C2=C2C(O)=CC=C(O)[C@]21C(=O)OC", "Inequality symbol": ">", "TGI (µM)": 68}
{"Molecule": "COc1ccc2[nH]c3c(c2c1)CCN(C)CC3", "Inequality symbol": ">", "TGI (µM)": 100}
{"Molecule": "CCOC/N=C(/N)NC#N", "Inequality symbol": ">", "TGI (µM)": 100}
{"Molecule": "O=[N+]([O-])C1C(c2ccccc2)C12c1ccccc1-c1ccccc12 (stereo not given)", "Inequality symbol": "=", "TGI (µM)": 6.43}
{"Molecule": "CCN(CC)Cc1nc2sc3c(c2c(=O)n1-c1ccccc1)CCCC3", "Inequality symbol": "=", "TGI (µM)": 33.6}
{"Molecule": "Cc1c(-c2c(C)c3ccccc3n2S(=O)(=O)c2ccccc2)n(S(=O)(=O)c2ccccc2)c2ccccc12", "Inequality symbol": ">", "TGI (µM)": 69}
{"Molecule": "COC(=O)/C=C\\Sc1ccn(/C=C\\C(=O)OC)c(=S)n1", "Inequality symbol": ">", "TGI (µM)": 100}
